Where do these numbers come from? They come from ChEMBL document CHEMBL3352177.

Measured Ki, listed per entry for reference.
- System: SNB-75
- Measurement notes: Antimigratory activity against human SNB75 cells on matrix containing laminin after 24 hrs by 2-D migration assay
- Type: functional, cell-based
Record the value in nM, omitting the unit from your answer.

Asked: With SNB-75 as the test system, provide measured Ki for this compound: `CC[P@@]1(=O)O[C@H]([C@H]2COC(C)(C)O2)[C@@H]2OC(C)(C)O[C@@H]2[C@@H]1O`
Given back: 27

Asked: With SNB-75 as the test system, provide measured Ki for this compound: `CC1(C)O[C@@H]2[C@H](O1)[C@@H](Nc1cccc3ccccc13)[P@](=O)(c1ccccc1)O[C@@H]2[C@H]1COC(C)(C)O1`
Given back: 60
